Tested on: LOX IMVI melanoma
Assay Remarks: NCI tumour cell line growth inhibition, 48 h
Assay Endpoint: TGI

As a guide, the following entries are already answered.
{"Smiles Input": "[N-]=[N+]=Nc1cc(=O)n2c3c(cccc13)CCC2", "TGI": "> 100 µM"}
{"Smiles Input": "O=C(O)c1ccc(OCc2ccccc2)c(Cl)c1", "TGI": "> 100 µM"}
{"Smiles Input": "CC(C)N(CCn1c2c3ccccc3ccc2c2oc(=O)c3ccccc3c21)C(C)C", "TGI": "> 100 µM"}
{"Smiles Input": "COc1ccc(-c2coc3c4c(ccc3c2=O)OCO4)cc1OC", "TGI": "> 100 µM"}
{"Smiles Input": "COc1cc(C(=O)N2CCN(c3ncccn3)CC2)c(N)cc1OCc1ccccc1", "TGI": "> 100 µM"}

# next compound below
Task: Tell me its TGI given `CCn1sc2ccccc2c1=O` as the entry.
Output: 7.73 µM

###

System: SK-MEL-2 melanoma
Assay Remarks: NCI tumour cell line growth inhibition, 48 h
Assay Endpoint: GI50

As a guide, the following entries are already answered.
{"Smiles Input": "CC(=O)Oc1ccccc1C(=O)Nc1ncc([N+](=O)[O-])s1", "Endpoint Value": "2.05 µM"}
{"Smiles Input": "N=C(N)c1ccc2nc(-c3cc(CC(=O)N[C@@H](CC(=O)O)C(=O)O)cc(-c4cc(S(N)(=O)=O)ccc4O)c3O)[nH]c2c1", "Endpoint Value": "> 100 µM"}
{"Smiles Input": "O=C(Nc1ccc(-n2ccc3c(NC(=O)c4ccccc4)nccc32)cc1)Nc1ccc(Cl)c(Cl)c1", "Endpoint Value": "1.98 µM"}
{"Smiles Input": "CC(=O)[O][Ga]([Br])[O]C(C)=O", "Endpoint Value": "> 100 µM"}

# next compound below
Task: Tell me its GI50 given `O[C@H](c1cc(C(F)(F)F)nc2c(C(F)(F)F)cccc12)[C@@H]1CCCCN1` as the entry.
Output: 3.26 µM

###

System: 786-0 renal
Assay Remarks: NCI tumour cell line growth inhibition, 48 h
// reported TGI per item

As a guide, the following entries are already answered.
{"Compound": "CC(CO)CCNc1ncnc2c1ncn2CCC(=O)OC(C)(C)C (stereo unspecified)", "Endpoint Value": "> 100 µM"}
{"Compound": "Cc1ccc(NC(=O)CSc2nnc(-c3ccc(N=Cc4ccc(Cl)cc4)cc3)o2)cc1", "Endpoint Value": "> 100 µM"}
{"Compound": "CN(C)c1ccc(/C=N\\NC(=O)Nc2cccc3ccccc23)cc1", "Endpoint Value": "51.5 µM"}

Task: Tell me its TGI given `CCOC(=O)c1c(NC(=O)OC)c(C#N)c2n1CCCCC2` as the entry.
Output: > 100 µM

Task: Tell me its TGI given `O=C(Oc1cccnc1)c1cc2cc(CCl)ccc2oc1=O` as the entry.
Output: 36.1 µM

Task: Tell me its TGI given `CC1=NC(=Cc2cc(Br)cc(Br)c2)C(=O)N1n1c(-c2ccccc2)nc2ccccc2c1=O` as the entry.
Output: > 100 µM

###

// reported TGI per item
System: COLO 205 colon
Assay Remarks: NCI tumour cell line growth inhibition, 48 h

Task: Tell me its TGI given CCOC(=O)C1(C/C=C/CBr)CCc2ccccc2C1=O (centres undefined) as the entry.
Output: 42.6 µM

Task: Tell me its TGI given COc1ccc2c(c1)nc1n2C(c2c(Cl)cccc2Cl)SC1 (centres undefined) as the entry.
Output: > 100 µM

Task: Tell me its TGI given `NC(=O)OCCn1cc(-c2nc(-c3c[nH]c4ncccc34)cs2)c2ccccc21` as the entry.
Output: 9.57 µM

Task: Tell me its TGI given `O=C(N[C@@H](c1ccccc1)[C@@H](O)C(=O)OCc1ccc([N+](=O)[O-])cc1)c1ccccc1` as the entry.
Output: > 100 µM
